Reference for the values: ChEMBL document CHEMBL1140767

# System: HCT-116
# procedure text: Induction of apoptosis in human HCT116 cells assessed as caspase-3 activation
# Type: functional, cell-based
Assign pEC50 to each entry below.
Please treat pEC50 as minus the base-10 logarithm of the molar concentration.

Query the reported pEC50 for HCT-116; item: COc1ccc(Sc2c3ccccc3nc3c2c(C)nn3C)cc1 5.18

Notebook entry, HCT-116 assay: pEC50 of CCC(O)c1ccc(Nc2c3ccccc3nc3c2c(C)nn3C)cc1 (stereo not drawn) = ? 6.48

----------
# Tested on: T47D
# procedure text: Induction of apoptosis in human T47D cells assessed as caspase-3 activation
# Assay type: functional, cell-based
Could you please report measured log10(EC50) for the items listed next?
Parameter value (number): base-10 log of EC50 in µM.

Tell me the measured log10(EC50) of CC(=O)c1cccc(Nc2c3c(nc4ccccc24)CCC3)c1 , please. -0.35

Can you look up the measured log10(EC50) of COc1cccc(Nc2c3ccccc3nc3c2c(C)nn3C)c1 for me? 0.86

So what's the measured log10(EC50) for this one? COC(=O)c1ccc(N(C)c2c3ccccc3nc3c2c(C)nn3C)cc1 0.72

Recorded log10(EC50) for CCC(=O)c1ccc(Nc2c3cccc([N+](=O)[O-])c3nc3c2c(C)nn3C)cc1 , please? -0.29

Which log10(EC50) reading was recorded for the molecule CC(=O)c1ccc(Nc2c3ccccc3nc3c2c(C)nn3C)cc1 ? -0.28

Please look up its log10(EC50): COc1ccc(Nc2c3ccccc3nc3c2c(C)nn3C)cc1 0.00

----------
# Tested on: HCT-116
# procedure text: Induction of apoptosis in human HCT116 cells assessed as caspase-3 activation
# Assay type: functional, cell-based
Consider the following molecules; for each one, report its EC50.

What value of EC50 has been recorded for this entry: COC(=O)c1ccc(Nc2c3ccccc3nc3c2c(C)nn3C)cc1 670 nM

Reported EC50, molecule Cc1nn(C)c2nc3ccccc3c(Nc3ccc(C(=O)C(C)C)cc3)c12 : ____ 390 nM

State the recorded EC50 for this entry: CC(=O)c1ccc(Oc2c3ccccc3nc3c2c(C)nn3C)cc1 > 10000 nM

Can you look up the measured EC50 of COC(=O)c1ccc(N(C)c2c3ccccc3nc3c2c(C)nn3C)cc1 for me? 6080 nM

Recorded EC50 of CCC(=O)c1ccc(Nc2c3cccc([N+](=O)[O-])c3nc3c2c(C)nn3C)cc1 , please. 480 nM

# input molecule: Cc1nn(C)c2nc3ccccc3c(Nc3ccc(C(N)=O)cc3)c12 ; wanted: its EC50 > 10000 nM
